# EXPERIMENT NOTES: PGC1a acetylation increase, cellular AlphaLISA – cell-based, cherry-picked samples, set 6, dose response (AID 720513);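 also: cells made to overexpress flag tagged PGC1a plus GCN5 acetyltransferase by viral infection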
# APPLIED CONDITIONS: U2OS PGC1a acetylation AlphaLISA, overnight, 0 = neutral, -100 = inhibitor control; series mostly up to 19.5 µM
About 480 (23%) of roughly 2,100 compounds were called active. Inconclusive results (about 5%) are left out. Not all results are given here. Potency and affinity values are given separately.

{"columns": ["MOLECULE", "outcome"],
 "data": [
  ["CN1C(C(=O)Nc2ccccn2)=C(O)c2sc(Cl)cc2S1(=O)=O", "inactive"],
  ["CC(C)C(NC(=O)c1ccc(C(C)(C)C)cc1)C(=O)O (stereo not given)", "inactive"],
  ["O=C(C[C@H]1C=C[C@H](NC(=O)Nc2ccc(C(F)(F)F)cc2)[C@@H](CO)O1)NCc1ccccn1", "inactive"],
  ["Cc1cc(C)n(-c2nc(O)cc(=O)[nH]2)n1", "inactive"],
  ["CO[C@H]1CN(C)C(=O)c2ccc(NC(=O)C3CCOCC3)cc2OC[C@@H](C)N(C)C[C@@H]1C", "inactive"]
]}

The measured values listed here are drawn from PubChem BioAssay AID720513.
